# TARGET_ENTITY: USP1 (Homo sapiens)
# EXPERIMENTAL_PROTOCOL: Biochemical Assay for USP1 Inhibition (Ub-Rho 110 fluorescence)
# CONDITION_PARAMETERS: Table 5; 30 min preincubation, Enzyme 0.025 nM, Substrate Ub-Rho 110 25 nM; read-out: IC50 (μm)
pIC50: −log10 of the molar value.
Documented pIC50 across a set of compounds

{"columns": ["COMPOUND", "TARGET_ENTITY", "pIC50"],
 "data": [
  ["Cc1nc(-c2cccnc2C(C)C)c2n1CCN(c1cccc(C(=O)N(C)C3CC3)c1)C2 [Compound 60]", "USP1 (Homo sapiens)", "< 4.60"],
  ["Cc1nc(-c2cccnc2OC(F)F)c2n1CC(C)N(c1ccc(-c3nc(C(F)(F)F)cn3C)cc1)C2 (single isomer, unassigned) [Compound 27-1]", "USP1 (Homo sapiens)", "≥ 6.00"],
  ["Cc1nc(-c2cccnc2OC(C)C)c2n1CCN(c1ccc(-c3nc(C(F)(F)F)cn3C)cc1)C2 [Compound 20]", "USP1 (Homo sapiens)", "≥ 6.00"]
]}

Here is another compound to look at.
What value of pIC50 has been recorded for this entry: Cc1nc(-c2cccnc2C(C)C)c2n1CCN(c1ccc(C(=O)NCC3CC3)cc1)C2 [Compound 57]
< 4.60

###

# TARGET_ENTITY: USP1 (Homo sapiens, UniProt O94782)
# Sequence (O94782 whole entry): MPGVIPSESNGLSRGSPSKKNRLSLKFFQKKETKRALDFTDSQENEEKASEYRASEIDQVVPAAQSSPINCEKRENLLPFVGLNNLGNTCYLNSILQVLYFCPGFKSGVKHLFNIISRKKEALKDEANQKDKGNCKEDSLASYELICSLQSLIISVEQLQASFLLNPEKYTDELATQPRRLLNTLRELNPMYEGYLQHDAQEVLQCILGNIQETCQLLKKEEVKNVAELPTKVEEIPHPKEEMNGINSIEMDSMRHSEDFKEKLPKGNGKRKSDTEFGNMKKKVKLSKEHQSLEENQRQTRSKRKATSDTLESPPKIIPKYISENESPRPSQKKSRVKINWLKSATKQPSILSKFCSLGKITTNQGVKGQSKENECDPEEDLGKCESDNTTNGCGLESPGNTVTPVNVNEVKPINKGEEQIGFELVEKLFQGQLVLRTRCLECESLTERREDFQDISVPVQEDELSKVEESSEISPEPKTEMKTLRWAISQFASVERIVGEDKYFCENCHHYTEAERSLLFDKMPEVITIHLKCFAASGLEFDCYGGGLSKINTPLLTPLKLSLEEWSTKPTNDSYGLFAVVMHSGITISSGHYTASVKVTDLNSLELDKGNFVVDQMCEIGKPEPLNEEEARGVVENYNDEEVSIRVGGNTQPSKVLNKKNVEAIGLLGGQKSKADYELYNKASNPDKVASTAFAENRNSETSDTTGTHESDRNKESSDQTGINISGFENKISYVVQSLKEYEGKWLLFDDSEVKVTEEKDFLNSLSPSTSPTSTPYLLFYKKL
# Sequence (Q8TAF3 whole entry partner): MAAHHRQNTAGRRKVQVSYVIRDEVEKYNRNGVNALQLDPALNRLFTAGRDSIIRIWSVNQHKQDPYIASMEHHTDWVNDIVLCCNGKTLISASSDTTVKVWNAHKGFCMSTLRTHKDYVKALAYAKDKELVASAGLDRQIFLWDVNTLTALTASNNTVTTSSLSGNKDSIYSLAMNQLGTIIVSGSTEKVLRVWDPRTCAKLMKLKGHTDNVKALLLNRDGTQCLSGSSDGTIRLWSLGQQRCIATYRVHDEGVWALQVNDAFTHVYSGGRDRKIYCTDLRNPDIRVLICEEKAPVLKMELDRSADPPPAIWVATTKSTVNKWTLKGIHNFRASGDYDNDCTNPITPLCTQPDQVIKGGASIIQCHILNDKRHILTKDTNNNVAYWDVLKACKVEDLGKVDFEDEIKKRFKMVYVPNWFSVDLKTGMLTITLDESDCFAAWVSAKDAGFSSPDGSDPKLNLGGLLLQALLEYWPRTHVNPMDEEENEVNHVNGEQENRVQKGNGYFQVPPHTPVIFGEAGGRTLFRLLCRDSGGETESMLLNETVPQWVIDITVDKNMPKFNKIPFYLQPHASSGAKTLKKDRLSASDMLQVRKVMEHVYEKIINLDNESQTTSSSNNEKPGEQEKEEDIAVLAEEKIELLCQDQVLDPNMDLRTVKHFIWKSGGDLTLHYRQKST
# EXPERIMENTAL_PROTOCOL: Biochemical Assay for USP1 Inhibition (Ub-Rho 110 fluorescence)
# CONDITION_PARAMETERS: Table 5; 30 min preincubation, Enzyme 0.025 nM, Substrate Ub-Rho 110 25 nM; read-out: IC50 (μm)
pIC50: −log10 of the molar value.
Documented pIC50 across a set of compounds

Example entries begin here.
{"columns": ["COMPOUND", "pIC50"],
 "data": [
  ["Cc1nc(-c2cccnc2C(C)C)c2n1CCN(c1ccc(-c3nc(C(F)(F)F)cn3C3COC3)cc1)C2 [Compound 25]", "≥ 6.00"],
  ["Cc1nc(-c2cccnc2C(C)C)c2n1CCN(c1ccc(N3CCOCC3)cc1)C2 [Compound 30]", "< 4.60"],
  ["Cc1nc(-c2cccnc2C(C)C)c2n1CCN(c1ccc(-c3cnn(C4CCOCC4)c3)cc1)C2 [Compound 74]", "4.60 to 5.00"],
  ["Cc1nc(-c2cccnc2C(C)C)c2n1CCN(c1ncccn1)C2 [Compound 10]", "< 4.60"],
  ["Cc1cc(Cl)nn1-c1ccc(N2CCn3c(C)nc(-c4cccnc4OC(F)F)c3C2)cc1 [Compound 81]", "≥ 6.00"]
]}

What value of pIC50 has been recorded for this entry: Cc1cn(C)c(-c2ccc(N3CCn4c(C)nc(-c5cccnc5C(C)C)c4C3)cc2)n1 [Compound 77]
≥ 6.00

What value of pIC50 has been recorded for this entry: Cc1nc(-c2cccnc2C(C)C)c2n1CCN(c1ccc(C(=O)NCc3ccc(-n4ccc(C(F)(F)F)n4)cc3)cc1)C2 [Compound 53]
5.00 to 6.00

What value of pIC50 has been recorded for this entry: CC(C)c1ncccc1-c1ncn2c1CN(c1ccc(-c3nc(C(F)(F)F)cn3C)cc1)CC2 [Compound 4]
≥ 6.00

###

Documented IC50 across a set of compounds
# TARGET_ENTITY: UniProt O94782
# EXPERIMENTAL_PROTOCOL: Biochemical Assay for USP1 Inhibition (Ub-Rho 110 fluorescence)
# CONDITION_PARAMETERS: Table 5; 30 min preincubation, Enzyme 0.025 nM, Substrate Ub-Rho 110 25 nM; read-out: IC50 (μm)

{"columns": ["COMPOUND", "TEST_RESULT"],
 "data": [
  ["Cc1nc(-c2cccnc2C(C)C)c2n1CC(C)N(c1ccc(-c3nc(C(F)(F)F)cn3C)cc1)C2 (single isomer, unassigned)", "≤ 1000 nM"],
  ["Cc1nc(-c2cccnc2C(C)C)c2n1CCN(c1ccc(-c3nc(C(F)(F)F)cn3C)cn1)C2C (stereo not shown)", "≤ 1000 nM"],
  ["Cc1nnc(-c2ccc(N3CCn4c(C)nc(-c5cccnc5C(C)C)c4C3)cc2)o1", "1000 to 10000 nM"],
  ["Cc1nc(-c2cccnc2C(C)C)c2n1CCN(c1ccc(-n3nccn3)cc1)C2", "1000 to 10000 nM"],
  ["Cc1nc(-c2cccnc2C(C)C)c2n1CCN(c1ccc(C(=O)N(C)CC(F)(F)F)cc1)C2", "1000 to 10000 nM"],
  ["Cc1nc(-c2cccnc2C(C)C)c2n1CCN(c1ccc(-n3cnnc3)cc1)C2", "> 25000 nM"],
  ["Cc1nc(-c2cccnc2C(C)C)c2n1CCN(c1ccc(C(=O)N(C)C)cc1)C2", "10000 to 25000 nM"],
  ["Cc1nc(-c2cccnc2C(C)C)c2n1C(C)CN(c1ccc(-c3nc(C(F)(F)F)cn3C)cc1)C2 (single isomer, unassigned) [Compound 72-1]", "≤ 1000 nM"],
  ["COCCn1cc(C(F)(F)F)nc1-c1ccc(N2CCn3c(C)nc(-c4cccnc4C(C)C)c3C2)cc1", "≤ 1000 nM"],
  ["Cc1nc(-c2cccnc2C(C)C)c2n1CCN(c1ccc(NC(=O)C3CC3)cc1)C2", "1000 to 10000 nM"]
]}

What value of IC50 has been recorded for this entry: Cc1nc(-c2cccnc2C(C)C)c2n1CCN(c1ccc(-c3nc(C(F)(F)F)cn3C)cc1)C2C (stereo not shown) [Compound 7]
≤ 1000 nM

What value of IC50 has been recorded for this entry: Cc1nc(-c2ccccc2C(C)C)c2n1CCN(c1ccc(-c3nc(C(F)(F)F)cn3C)cc1)C2
≤ 1000 nM

What value of IC50 has been recorded for this entry: Cc1nnnn1-c1ccc(N2CCn3c(C)nc(-c4cccnc4C(C)C)c3C2)cc1
> 25000 nM

What value of IC50 has been recorded for this entry: Cc1nc(-c2cccnc2C(C)C)c2n1CCN(c1ccc(C3=CCON3)cc1)C2
1000 to 10000 nM

What value of IC50 has been recorded for this entry: Cc1nc(-c2cccnc2C(C)C)c2n1CCN(c1ccc(-c3ncccn3)cc1)C2
1000 to 10000 nM

What value of IC50 has been recorded for this entry: Cc1nc(-c2cccnc2C(C)C)c2n1CCN(c1ccc(-c3nc(C(F)(F)F)cn3C3CN(C)C3)cc1)C2
≤ 1000 nM

What value of IC50 has been recorded for this entry: Cc1nc(-c2cccnc2C(C)C)c2n1CCN(c1ccc(-c3nc(Cl)cn3C)cc1)C2
≤ 1000 nM

What value of IC50 has been recorded for this entry: Cc1nc(-c2cccnc2C(C)C)c2n1CCN(c1ccc(N(C)C)cc1)C2
> 25000 nM

What value of IC50 has been recorded for this entry: CC(C)c1ncccc1-c1nc(C(F)(F)F)n2c1CN(c1ccc(-c3nc(C(F)(F)F)cn3C)cc1)CC2
≤ 1000 nM
